B1: HDV Ribozyme (parent)
chain: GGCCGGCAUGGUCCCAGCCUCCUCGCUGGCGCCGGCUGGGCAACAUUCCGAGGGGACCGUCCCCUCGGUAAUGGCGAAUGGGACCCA

# Variants of: B1
# TEST_PROTOCOL: self-cleavage, relative activity (ratio to wild type); higher = more cleavage; co-transcriptional
Could you please classify the records by self-cleavage using these ranges: low = under 0.2, middle = from 0.2 up to 0.5, high = 0.5 and over

For orientation, consider the following solved cases.
U69G G80A
middle
C44A C49U
middle
G39A C41U
high
A42C G55A
high
C22U C62G
middle
C3A G17A
low
U37C C49U
high
C15U C24G
low

Bin? G31U G76A middle

Would you mind doing G1U A16C as well? middle

Another variant: C41U G54U high

Another variant: G10A C21U low

And what about the variant G39A A43C ? low

// same read-out, input: G10C U60C high

Same question, C32A U47A this time middle

Then G5C A45U ? low

How about C21G C85G ? middle

And the next one, G38U G40A ? middle

Now consider C13A A16G . middle

Again, but for G35C C36U low

Next variant: C62U A83G high

Let us now turn to G5C U12C low

Proceed to G29U G50A low

Continue with C24A G31A low

Same again, this time with G17C C21G low

Thanks! And U37G A83G ? low

Next: G5C G29C low

And the next one, C13A ? middle

Same lookup for G40A C57G , please. high

Source: the RNAGym collection of RNA variant scans (doi:10.7554/elife.80360)
